Tested on: HCT-116
Protocol summary: NCI tumour cell line growth inhibition, 48 h
Activity calls are given as the source filed them. Cut-off read from the data, not from the text of the source: active = GI50 up to about 1.1 µM and inactive = higher.
Labels: 1.0 (active), 0.0 (inactive)

| Molecule | Discrete label |
| --- | --- |
| CN(CCCNC(=O)c1nn(-c2ccc(Cl)cc2Cl)c2c1Cc1ccccc1-2)CCCNC(=O)c1nn(-c2ccc(Cl)cc2Cl)c2c1Cc1ccccc1-2 | 0.0 |
| CCOC(=O)Oc1cc2c(c(OC)c1OC)-c1ccc(SC)c(=O)cc1C(NC(=O)C(F)(F)F)CC2 (stereo not given) | 1.0 |
| CO[C@@H]1C=C[C@@]23c4cc5c(cc4C(=O)O[C@H]2CN(C)[C@H]3C1)OCO5 | 0.0 |
| O=C1N=C2Sc3ccc4ccccc4c3N2C1=O | 0.0 |
| COP(=O)(Cc1ccc(/C=C/C#N)o1)OC | 0.0 |
| COC(=O)NC(Nc1ccc(Cl)cc1Cl)(C(F)(F)F)C(F)(F)F | 0.0 |
| O=C(CCCCCCC(=O)Nc1cccnc1)NO [PYROXAMIDE] | 0.0 |
| Cc1ccc(S(=O)(=O)N/N=C2/C3CC4CCC2C4C3)cc1 (stereo not given) | 0.0 |
| CC(=O)Oc1cc2c(cc1OC(C)=O)OCC(c1ccc(C)cc1)C2 (stereo not given) | 0.0 |
| Nc1ccccc1C(=O)C(Br)C(Br)c1ccc2c(c1)OCO2 (stereo not given) | 0.0 |

###

System: COLO 205
Protocol summary: NCI tumour cell line growth inhibition, 48 h
Active and inactive are the calls of the source. No stated cut-off is given here; in the data, active = GI50 up to about 1.1 µM and inactive = higher.
Observable: GI50

| Molecule | Test value |
| --- | --- |
| O=C1C(Cl)=C(N2CCC[C@@H]2CO)C(=O)c2c(O)ccc(O)c21 | 1.55 µM (inactive) |
| N#CCCN(CCC#N)c1ccc(/C=C(/NC(=O)c2cc([N+](=O)[O-])ccc2Cl)C(=O)N=[N+]=[N-])cc1 | > 100 µM (inactive) |
| CC(=O)c1cc2ccccc2oc1=O | > 100 µM (inactive) |
| O=C(Cc1ccccc1)NNc1nc(NNC(=O)c2ccncc2)nc(Nc2ccc([N+](=O)[O-])cc2)n1 | > 10 µM (inactive) |
| C[C@]12C=CC(=O)C=C1CC[C@@H]1[C@@H]2CC[C@@]2(C)[C@H]1CC[C@]2(O)C(N)=O | > 100 µM (inactive) |
| COc1cc(C)cc2c1c(=O)c1ccccc1n2C | 27.2 µM (inactive) |
| O=C(NC1CCC(=O)N1C(=O)OCc1ccccc1)OCc1ccccc1 (configuration not stated) | > 100 µM (inactive) |
| O=c1[nH]c2ccc(CC(=S)N3CCCCC3)cc2s1 | > 100 µM (inactive) |
| Oc1ccccc1C(Sc1nc2ccccc2s1)Sc1nc2ccccc2s1 | 52.4 µM (inactive) |
| C1CNCCNCCN1 | > 100 µM (inactive) |
| O=S(=O)(c1ccccc1)C1CN(Cc2ccccc2)CCN(Cc2ccccc2)C1 | 30 µM (inactive) |
| O=C1C(/N=N/c2ccc(-c3nc4ccccc4[nH]3)cc2)NC(=S)N1c1ccccc1 (configuration not stated) | 73.6 µM (inactive) |
| COc1cc2cc3c4c(cc(OC)c(OC)c4c2cc1OC)CCN3C(=O)OCCBr | 78 µM (inactive) |
| CCCN(CCCC(NC(C)=O)C(=O)NCc1ccccc1)C(=O)NCCCl (configuration not stated) | > 100 µM (inactive) |
| C[C@H](NC(=O)c1ccc(CNC(=O)/C=C/c2cccc(Oc3ccccc3)c2)cc1)c1ccccc1 | > 100 µM (inactive) |
| O=[N+]([O-])c1ccc(C2CC(c3ccccc3Cl)=Nc3ccccc3S2)cc1 (configuration not stated) | 15.8 µM (inactive) |
| O=C(CCc1ccc(O)c(O)c1)NCCc1ccc(O)c(O)c1 | > 100 µM (inactive) |
| COC(=O)C1(C)CCc2c(ccc3ccccc23)C1=O (configuration not stated) | 21.3 µM (inactive) |
| O=C1/C(=C/c2ccccc2)CCCC1CN1CCCCC1 (configuration not stated) | 3 µM (inactive) |
| COc1cc2c(cc1OC)C(CC(=O)NN=C(C)C)NCC2 (configuration not stated) | > 100 µM (inactive) |
| CC(=O)NNc1nc(C)c(C(=O)NNC(=O)C(=O)Nc2c(C)cccc2C(C)C)s1 | > 100 µM (inactive) |
| CCN(CC)/N=C\c1c2ccccc2cc2ccccc12 | 23.5 µM (inactive) |
